Molecular target: BRD4^BD1 (Homo sapiens)
Construct: to the isolated BD1 and BD2 domains of BRD2, BRD3 and BRD4
Test: competitive fluorescence polarization assay, BRD4 BD1 -/+ presenter protein
Format: binding
Details: ratio of binding in absence or presence of FKBP12
Exercise: state measured α BRD4^BD1 (binding cooperativity factor) for each of the molecules provided.
Please reply with the number alone, leaving off any unit.

What the record says about Cc1sc2c(c1C)C(c1ccc(Cl)cc1)=NC(CC(=O)N1CC(CN3CCC(Cn4cc(COCC5CN(Cc6ccccn6)C(=O)C6CCCC5N6S(=O)(=O)c5cc(Cl)cc(Cl)c5)nn4)CC3)C1)c1nnc(C)n1-2 (centres unmarked) [a12d] : α BRD4^BD1 (binding cooperativity factor) is 6.3

Short answer for Cc1sc2c(c1C)C(c1ccc(Cl)cc1)=NC(CC(=O)N1CCC(CN3CCC(Cn4cc(COCC5CN(Cc6ccccn6)C(=O)C6CCCC5N6S(=O)(=O)c5cc(Cl)cc(Cl)c5)nn4)CC3)CC1)c1nnc(C)n1-2 (centres unmarked) [a8d] : α BRD4^BD1 (binding cooperativity factor) was 1.9

// α BRD4^BD1 (binding cooperativity factor) value for C=CC1CN(Cc2cn(CCOCCOCCNC(=O)CC3N=C(c4ccc(Cl)cc4)c4c(sc(C)c4C)-n4c(C)nnc43)nn2)C(=O)C2CCCC1N2S(=O)(=O)c1cc(Cl)cc(Cl)c1 (centres unmarked) [a2i] : 1.1

The reported value for Cc1sc2c(c1C)C(c1ccc(Cl)cc1)=NC(CC(=O)N1CCC(CN3CCC(n4cc(COCC5CN(Cc6ccccn6)C(=O)C6CCCC5N6S(=O)(=O)c5cc(Cl)cc(Cl)c5)nn4)CC3)CC1)c1nnc(C)n1-2 (centres unmarked) [a7d] in terms of α BRD4^BD1 (binding cooperativity factor) is 2.2

α BRD4^BD1 (binding cooperativity factor) recorded for this molecule, Cc1sc2c(c1C)C(c1ccc(Cl)cc1)=NC(CC(=O)N1CC(CN3CCC(n4cc(COCC5CN(Cc6ccccn6)C(=O)C6CCCC5N6S(=O)(=O)c5cc(Cl)cc(Cl)c5)nn4)CC3)C1)c1nnc(C)n1-2 (centres unmarked) [a11d] , is 12

----------
Molecular target: UniProtKB P62942
Sequence (P62942 whole entry): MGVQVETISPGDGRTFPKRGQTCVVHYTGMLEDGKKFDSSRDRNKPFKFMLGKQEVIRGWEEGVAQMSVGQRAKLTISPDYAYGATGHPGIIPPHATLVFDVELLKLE
Assay: NanoBRET FKBP12 in intact HEK293 cells
READOUT TYPE: pIC50
Formally, pIC50 is defined as -log10 of the concentration c, with c in mol/L.

Reported pIC50 for Cc1sc2c(c1C)C(c1ccc(Cl)cc1)=NC(CC(=O)NCCOCCn1cc(COCC3CN(Cc4ccccn4)C(=O)C4CCCC3N4S(=O)(=O)c3cc(Cl)cc(Cl)c3)nn1)c1nnc(C)n1-2 (centres unmarked) [a1d] was 7.85

The molecule Cc1sc2c(c1C)C(c1ccc(Cl)cc1)=NC(CC(=O)N1CCC(CN3CCC(Cn4cc(C5CN(Cc6ccccn6)C(=O)C6CCCC5N6S(=O)(=O)c5cc(Cl)cc(Cl)c5)nn4)CC3)CC1)c1nnc(C)n1-2 (centres unmarked) [a8c] showed pIC50 equal to 6.75

Value of pIC50 reported for the molecule Cc1sc2c(c1C)C(c1ccc(Cl)cc1)=NC(CC(=O)NCCOCCn1cc(COCC3CN(C(C)c4ccccn4)C(=O)C4CCCC3N4S(=O)(=O)c3cc(Cl)cc(Cl)c3)nn1)c1nnc(C)n1-2 (centres unmarked) [a1dj] is 8.59

So for Cc1sc2c(c1C)C(c1ccc(Cl)cc1)=NC(CC(=O)NCCOCCn1cc(COCC3CN(CC(=O)N4CCC(C)CC4)C(=O)C4CCCC3N4S(=O)(=O)c3cc(Cl)cc(Cl)c3)nn1)c1nnc(C)n1-2 (centres unmarked) [a1dk] , the logged pIC50 turned out to be 8.04

Lab book: pIC50 of Cc1sc2c(c1C)C(c1ccc(Cl)cc1)=NC(CC(=O)NCCOCCn1cc(COC(C)C3CN(Cc4ccccn4)C(=O)C4CCCC3N4S(=O)(=O)c3cc(Cl)cc(Cl)c3)nn1)c1nnc(C)n1-2 (centres unmarked) [a1f] noted as 7.62

----------
Test system: MV4-11 cells
Experiment: CellTiter-Glo cell viability, MV4-11
Assay type: cell-based, human
Details: Homo sapiens, MV4-11, 120 h; five days, without FKBP12 PROTAC; read-out: Cell toxicity (MV4-11) - FKBP12 PROTAC IC50
READOUT TYPE: pIC50
Bear in mind: pIC50 is minus log10 of a mol/L concentration; give just that figure.

Entry Cc1sc2c(c1C)C(c1ccc(Cl)cc1)=NC(CC(=O)NCCOCCn1cc(COCC3CN(C(C)c4ccccn4)C(=O)C4CCCC3N4S(=O)(=O)c3cc(Cl)cc(Cl)c3)nn1)c1nnc(C)n1-2 (stereo not shown) [a1dj] ; pIC50 = 10.05

Input Cc1sc2c(c1C)C(c1ccc(C#CCNC(=O)COCCn3cc(C4CN(Cc5ccccn5)C(=O)C5CCCC4N5S(=O)(=O)c4cc(Cl)cc(Cl)c4)nn3)cc1)=NC(CC(=O)OC(C)(C)C)c1nnc(C)n1-2 (stereo not shown) [b3c] . Output pIC50: 10.22

Reported pIC50 for Cc1sc2c(c1C)C(c1ccc(Cl)cc1)=NC(CC(=O)NCCOCCn1cc(COCC3CN(Cc4ccccn4)C(=O)C4CCCC3N4S(=O)(=O)c3cc(Cl)cc(Cl)c3)nn1)c1nnc(C)n1-2 (stereo not shown) [a1d] was 8.77

Sample Cc1sc2c(c1C)C(c1ccc(Cl)cc1)=NC(CC(=O)N1CCC3(CC1)CC(n1cc(C4CN(Cc5ccccn5)C(=O)C5CCCC4N5S(=O)(=O)c4cc(Cl)cc(Cl)c4)nn1)C3)c1nnc(C)n1-2 (stereo not shown) [a13c] ; pIC50 observed: 8.11

----------
Biological target: BRD4^BD1 (Homo sapiens)
Construct: to the isolated BD1 and BD2 domains of BRD2, BRD3 and BRD4
Assay: competitive fluorescence polarization assay, BRD4 BD1 -/+ presenter protein
Format: binding
Conditions: ratio of binding in absence or presence of FKBP12
Labelling: α BRD4^BD1 (binding cooperativity factor) reported below 1 becomes Met; at or above becomes Not met.

Input Cc1sc2c(c1C)C(c1ccc(Cl)cc1)=NC(CC(=O)N1CC(CN3CCC(n4cc(C5CN(Cc6ccccn6)C(=O)C6CCCC5N6S(=O)(=O)c5cc(Cl)cc(Cl)c5)nn4)CC3)C1)c1nnc(C)n1-2 (centres unmarked) [a11c] ; condition: α BRD4^BD1 (binding cooperativity factor) strictly below 1. Does it hold?
Not met

Item Cc1sc2c(c1C)C(c1ccc(Cl)cc1)=NC(CC(=O)N1CCN(CCCCn3cc(COCC4CN(Cc5ccccn5)C(=O)C5CCCC4N5S(=O)(=O)c4cc(Cl)cc(Cl)c4)nn3)CC1)c1nnc(C)n1-2 (centres unmarked) [a6d] : α BRD4^BD1 (binding cooperativity factor) beneath 1, strictly?
Not met

Lab log: compare recorded α BRD4^BD1 (binding cooperativity factor) with 1; is it strictly lower for Cc1sc2c(c1C)C(c1ccc(Cl)cc1)=NC(CC(=O)N1CCC(CN3CCC(Cn4cc(C5CN(Cc6ccccn6)C(=O)C6CCCC5N6S(=O)(=O)c5cc(Cl)cc(Cl)c5)nn4)CC3)CC1)c1nnc(C)n1-2 (centres unmarked) [a8c] ?
Not met

Answer whether the compound Cc1sc2c(c1C)C(c1ccc(Cl)cc1)=NC(CC(=O)NCCOCCn1cc(COC(C)C3CN(Cc4ccccn4)C(=O)C4CCCC3N4S(=O)(=O)c3cc(Cl)cc(Cl)c3)nn1)c1nnc(C)n1-2 (centres unmarked) [a1f] has α BRD4^BD1 (binding cooperativity factor) strictly less than 1
Not met

Below 1 on α BRD4^BD1 (binding cooperativity factor)? Entry C=CC1CN(Cc2cn(CCOCCNC(=O)CC3N=C(c4ccc(Cl)cc4)c4c(sc(C)c4C)-n4c(C)nnc43)nn2)C(=O)C2CCCC1N2S(=O)(=O)c1cc(Cl)cc(Cl)c1 (centres unmarked) [a1i]
Met

----------
Target: BRD4 43-463 (Homo sapiens, UniProt O60885)
Assay: competitive FP assay, BRD4 tandem bromo domain construct
Type: binding
Settings: Binding to BRD4 43-463 - FKBP12 Kd, absence of FKBP12
READOUT TYPE: Kd (nM)
State just the number; it will be interpreted in nM.

# lookup: Cc1sc2c(c1C)C(c1ccc(Cl)cc1)=NC(CC(=O)N1CCC3(CC1)CC(n1cc(C4CN(Cc5ccccn5)C(=O)C5CCCC4N5S(=O)(=O)c4cc(Cl)cc(Cl)c4)nn1)C3)c1nnc(C)n1-2 (stereo not shown) [a13c] on BRD4 43-463 (Homo sapiens, UniProt O60885), Kd = 790

Record for Cc1sc2c(c1C)C(c1ccc(Cl)cc1)=NC(CC(=O)NCCOCCn1cc(COCC3CN(C(C)c4ccccn4)C(=O)C4CCCC3N4S(=O)(=O)c3cc(Cl)cc(Cl)c3)nn1)c1nnc(C)n1-2 (stereo not shown) under target or system BRD4 43-463 (Homo sapiens, UniProt O60885): Kd reported as 266

Kindly note: BRD4 43-463 (Homo sapiens, UniProt O60885), Cc1sc2c(c1C)C(c1ccc(C#CCNC(=O)COCCn3cc(C4CN(Cc5ccccn5)C(=O)C5CCCC4N5S(=O)(=O)c4cc(Cl)cc(Cl)c4)nn3)cc1)=NC(CC(=O)OC(C)(C)C)c1nnc(C)n1-2 (stereo not shown) , Kd value reported: 79

Assay BRD4 43-463 (Homo sapiens, UniProt O60885), sample Cc1sc2c(c1C)C(c1ccc(Cl)cc1)=NC(CC(=O)NCCOCCn1cc(COCC3CN(Cc4ccccn4)C(=O)C4CCCC3N4S(=O)(=O)c3cc(Cl)cc(Cl)c3)nn1)c1nnc(C)n1-2 (stereo not shown) , Kd read: 175
